- System: RAW-Dual
- PROTOCOL_NOTES: NF-kB SEAP reporter activity, fold change vs agonist alone; cytotoxicity flag (confluency mask): not cytotoxic; higher = enhanced NF-kB activity
- ASSAY_CONTEXT: agonist: LPS (TLR4) 0.1 ug/mL
Whole data set: some 2,900 compounds, median “NF-kB SEAP reporter activity, fold change vs agonist alone” near 0.99, cut for the highest 2% near 2.6. For the sample, the highest values were picked, then their nearest neighbours and some compounds at random.
Quick rule for you: NF-kB SEAP reporter activity at 2 or higher means true, lower means false.

| COMPOUND | SYSTEM_NAME | GROUP_LABEL |
| --- | --- | --- |
| CCN(CC)C(=O)Nc1ccc(OCC(O)CNC(C)(C)C)c(C(C)=O)c1.Cl (stereo unspecified) (library stock concentration (final ~1000-fold dilution): 10 mM) | RAW-Dual | true |
| CNCCCC12CCC(c3ccccc31)c1ccccc12.Cl (library stock concentration (final ~1000-fold dilution): 10 mM) | RAW-Dual | false |
| Cc1cc(N=Nc2ccc(S(=O)(=O)Nc3ccccn3)cc2)c(N)cc1O (library stock concentration (final ~1000-fold dilution): 10 mM) | RAW-Dual | true |
| CC(C)(C)NCC(O)COc1cccc2c1CCC(=O)N2.Cl (stereo unspecified) (library stock concentration (final ~1000-fold dilution): 10 mM) | RAW-Dual | false |
| COc1ccc(-c2cc(=O)c3c(O)c(OC)c(O)c(OC)c3o2)cc1 (library stock concentration (final ~1000-fold dilution): 10 mM) | RAW-Dual | false |

Shifting focus to the compound that follows.
Check this compound for NF-kB SEAP reporter activity at or above 2: O=C(O)C1=C/C(=N\Nc2ccc(S(=O)(=O)Nc3ccccn3)cc2)C=CC1=O (library stock concentration (final ~1000-fold dilution): 10 mM) false

---

- System: RAW-Dual
- PROTOCOL_NOTES: NF-kB SEAP reporter activity, fold change vs agonist alone; cytotoxicity flag (confluency mask): not cytotoxic; higher = enhanced NF-kB activity
- ASSAY_CONTEXT: agonist: LPS (TLR4) 0.1 ug/mL
In all, about 2,900 compounds were measured (“NF-kB SEAP reporter activity, fold change vs agonist alone”: median about 0.99, highest 2% from about 2.6 on). The entries come from a sample that favours the highest values as a whole.
Assign YES whenever NF-kB SEAP reporter activity does not fall below 1; assign NO whenever it does.

# example entries with known answers
| COMPOUND | GROUP_LABEL |
| --- | --- |
| Cl.O=S(=O)(c1cccc2c(I)cccc12)N1CCCNCC1 (library stock concentration (final ~1000-fold dilution): 10 mM) | NO |
| O=c1cc(-c2cccc3c2Sc2ccccc2S3)oc(N2CCOCC2)c1 (library stock concentration (final ~1000-fold dilution): 10 mM) | YES |
| CC#CC(=O)N1CCCC1c1nc(-c2ccc(C(=O)Nc3ccccn3)cc2)c2c(N)nccn12 (stereo unspecified) (library stock concentration (final ~1000-fold dilution): 10 mM) | YES |
| CC(=O)OC1(C(C)=O)CCC2C3C=C(C)C4=CC(=O)CCC4(C)C3CCC21C (stereo unspecified) (library stock concentration (final ~1000-fold dilution): 10 mM) | NO |
| CC(NC(=O)C(=O)Nc1ccccc1C(C)(C)C)C(=O)NC(CC(=O)O)C(=O)COc1c(F)c(F)cc(F)c1F (stereo unspecified) (library stock concentration (final ~1000-fold dilution): 10 mM) | NO |

Say whether Cc1cc(Nc2ccc(NC(=O)c3ccc(Nc4ccnc5ccccc45)cc3)cc2)nc(N)n1 (library stock concentration (final ~1000-fold dilution): 10 mM) shows NF-kB SEAP reporter activity of 1 or more. YES

Check the entry COC1/C=C\C=C(/C)C(=O)NC2=CC(=O)C(NCCN(C)C)=C(CC(C)CC(OC)C(O)C(C)/C=C(\C)C1OC(N)=O)C2=O.Cl (stereo unspecified) (library stock concentration (final ~1000-fold dilution): 10 mM) : does NF-kB SEAP reporter activity equal or exceed 1? NO

Entry CNCCC(Oc1ccccc1C)c1ccccc1.Cl (stereo unspecified) (library stock concentration (final ~1000-fold dilution): 10 mM) : is its NF-kB SEAP reporter activity no less than 1? YES

Test whether the compound COc1cc(-c2oc3cc(O)cc(O)c3c(=O)c2OC2OC(CO)C(O)C(O)C2OC2OC(C)C(O)C(O)C2O)ccc1O (stereo unspecified) (library stock concentration (final ~1000-fold dilution): 10 mM) records NF-kB SEAP reporter activity of 1 or higher. YES

Item O=C(O)CN1C(=O)c2cccc3cccc(c23)C1=O (library stock concentration (final ~1000-fold dilution): 10 mM) with NF-kB SEAP reporter activity of 1 or above? NO

Item O=C(O)c1ccc(/C=C2/SC(=S)N(Cc3cccc(C(F)(F)F)c3)C2=O)cc1 (library stock concentration (final ~1000-fold dilution): 10 mM) with NF-kB SEAP reporter activity of 1 or above? NO

Identify whether the reported NF-kB SEAP reporter activity of the following compound is 1 or greater: O=C(NCCO)c1cccc(-c2cc(Nc3ccc(OC(F)(F)F)cc3)ncn2)c1 (library stock concentration (final ~1000-fold dilution): 10 mM) YES

Assess whether reported NF-kB SEAP reporter activity for CC1CN(CC(=O)Nc2ccc3c(c2)Cc2cccc(-c4cc(=O)cc(N5CCOCC5)o4)c2S3)CC(C)O1 (stereo unspecified) (library stock concentration (final ~1000-fold dilution): 10 mM) sits at 1 or higher. YES

---

- Tested on: RAW-Dual
- PROTOCOL_NOTES: NF-kB SEAP reporter activity, fold change vs agonist alone; cytotoxicity flag (confluency mask): not cytotoxic; higher = enhanced NF-kB activity
- ASSAY_CONTEXT: agonist: ODN 1826 (TLR9) 0.5 ug/mL
The full ranking holds about 2,900 compounds; the median of “NF-kB SEAP reporter activity, fold change vs agonist alone” is about 0.99, and the highest 2% start at about 2.6. Shown is part of a subset that was picked to be rich in the highest values.
Reported NF-kB SEAP reporter activity values follow for various molecules
Quick one: just the number, no unit, thanks!

| MOLECULE | NF-kB SEAP reporter activity |
| --- | --- |
| CC(=O)N1c2ccc(-c3ccc(C(=O)O)cc3)cc2C(Nc2ccc(Cl)cc2)CC1C (stereo unspecified) (library stock concentration (final ~1000-fold dilution): 10 mM) | 2.49 |
| Cc1oncc1C(=O)Nc1ccc(C(F)(F)F)cc1 (library stock concentration (final ~1000-fold dilution): 10 mM) | 1.24 |
| Cl.NCCOc1ccc(Cl)cc1C(=O)Nc1ccc([N+](=O)[O-])cc1Cl (library stock concentration (final ~1000-fold dilution): 10 mM) | 0.59 |
| O=C(Nc1ccc([N+](=O)[O-])cc1Cl)c1cc(Cl)ccc1O (library stock concentration (final ~1000-fold dilution): 10 mM) | 0.713 |
| COCC(NC(=O)c1cnc(C)s1)C(=O)NC(COC)C(=O)NC(Cc1ccccc1)C(=O)C1(C)CO1 (stereo unspecified) (library stock concentration (final ~1000-fold dilution): 10 mM) | 1.25 |

Given Cl.Cl.N/C(=N\OCC(O)CN1CCCCC1)c1cccnc1 (stereo unspecified) (library stock concentration (final ~1000-fold dilution): 10 mM) , state its recorded NF-kB SEAP reporter activity. 0.949

---

- Tested on: RAW-Dual
- PROTOCOL_NOTES: NF-kB SEAP reporter activity, fold change vs agonist alone; cytotoxicity flag (confluency mask): not cytotoxic; higher = enhanced NF-kB activity
- ASSAY_CONTEXT: agonist: Pam3CSK4 (TLR2/1) 0.1 ug/mL
Whole data set: some 2,900 compounds, median “NF-kB SEAP reporter activity, fold change vs agonist alone” near 0.99, cut for the highest 2% near 2.6. For the sample, the highest values were picked, then their nearest neighbours and some compounds at random.
Recorded NF-kB SEAP reporter activity values for a group of compounds are listed next.

Known NF-kB SEAP reporter activity results, listed for orientation:
| COMPOUND | NF-kB SEAP reporter activity |
| --- | --- |
| O=C(O)c1ccc(/C=C2/SC(=S)N(Cc3cccc(C(F)(F)F)c3)C2=O)cc1 (library stock concentration (final ~1000-fold dilution): 10 mM) | 0.5 |
| COc1cc(OC)c(/C=C2/C(=O)Nc3ccccc32)c(OC)c1 (library stock concentration (final ~1000-fold dilution): 10 mM) | 1.92 |
| CC(=O)Oc1cc2c(s1)CCN(C(C(=O)C1CC1)c1ccccc1F)C2.Cl (stereo unspecified) (library stock concentration (final ~1000-fold dilution): 10 mM) | 0.688 |
| Cn1cc(-c2cnn3c(N)c(Br)c(C4CCCNC4)nc23)cn1 (stereo unspecified) (library stock concentration (final ~1000-fold dilution): 2 mM) | 1.19 |
| CCN1CCN(Cc2ccc(-c3cc4c(NC(C)c5ccccc5)ncnc4[nH]3)cc2)CC1 (stereo unspecified) (library stock concentration (final ~1000-fold dilution): 10 mM) | 1.01 |

Alright, here's another compound for you.
Item C[N+]1(C)CCC[C@H]1C(=O)O (library stock concentration (final ~1000-fold dilution): 10 mM) has what recorded NF-kB SEAP reporter activity? 1.08
